All values here come from PubChem BioAssay AID1159580.

# test_protocol: chemical genetic growth profiling, strain panel (AID 1159580);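 further: tested at 20 µM; growth read once vehicle control cultures reached saturation at 30 °C; 1 = growth at the plate median or of vehicle wells; lower values mean less growth of the strain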
# experimental_parameters: S. cerevisiae deletion strains, growth OD, locus YOR290C, strain snf2, hits give low values
In all, about 5,500 compounds went through this assay and about 2,000 (36%) were called active. Roughly 18% stayed inconclusive and do not appear here. The list shows a part of the results.
endpoint_name: normalized growth
Response field accepts a number only; no unit should be typed.

Quick check: normalized growth of CC(=O)O[C@H]1CC2CCC3C(CC[C@@]4(C)C3C[C@H]([N+]3(C)CCCCC3)[C@@H]4OC(C)=O)[C@@]2(C)C[C@@H]1[N+]1(C)CCCCC1 (stereo not given in full) ?
1.02

Quick check: normalized growth of CC(=O)Oc1ccc2c(c1)CCC1C2CC[C@@]2(C)C1CC[C@@H]2OC(C)=O (stereo not given in full) ?
0.968

Quick check: normalized growth of CC(=O)OC1CCC2C3CCc4cc(O)ccc4C3CCC12C (stereo not given) ?
0.971

Quick check: normalized growth of C[C@]12CCC3c4ccc(O)cc4CCC3C1CC[C@@H]2OC(=O)CCC1CCCC1 (stereo not given in full) ?
0.986

Quick check: normalized growth of CC(=O)Oc1ccc2c(c1)CCC1C2CCC2(C)C1CC(OC(C)=O)C2OC(C)=O (stereo not given) ?
0.97

###

# test_protocol: chemical genetic growth profiling, strain panel (AID 1159580);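 further: tested at 20 µM; growth read once vehicle control cultures reached saturation at 30 °C; 1 = growth at the plate median or of vehicle wells; lower values mean less growth of the strain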
# experimental_parameters: S. cerevisiae deletion strains, growth OD, locus YLR357W, strain rsc2, hits give low values
About 2,000 (36%) of roughly 5,500 compounds were called active. Roughly 18% stayed inconclusive and do not appear here. This is one part of the list.
Task for the reader: assign each of the following molecules its reported normalized growth.
Response field accepts a number only; no unit should be typed.

Quick check: normalized growth of CC(C)(O)CC[C@@H](O)[C@](C)(O)C1CC[C@@]2(O)C3=CC(=O)C4C[C@@H](O)[C@@H](O)C[C@]4(C)C3CC[C@]12C (some centres undefined) ?
0.999

Quick check: normalized growth of CC(=O)OC1CCC23C(=O)OC45CCC(C6=CC(=O)OC6)C4(C)CCC2C5CCC3(O)C1 (centres undefined) ?
0.973

Quick check: normalized growth of O=c1[nH]c2ccccc2n1C1CCN(CCCC(c2ccc(F)cc2)c2ccc(F)cc2)CC1 ?
0.877

Quick check: normalized growth of O=c1[nH]c2ccccc2n1CCCN1CCC(n2c(=O)[nH]c3cc(Cl)ccc32)CC1 ?
0.937

###

# test_protocol: chemical genetic growth profiling, strain panel (AID 1159580);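 further: tested at 20 µM; growth read once vehicle control cultures reached saturation at 30 °C; 1 = growth at the plate median or of vehicle wells; lower values mean less growth of the strain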
# experimental_parameters: S. cerevisiae deletion strains, growth OD, locus YJL187C, strain SWE1
Out of some 5,500 compounds screened, about 2,000 (36%) were called active. Inconclusive results (about 18%) are left out. No stated cut-off is given here; in the data, active means normalized growth mostly below about 0.91 (no sharp cut-off); inconclusive means no clear call, values can overlap the other calls; inactive means mostly above about 0.92. The list shows a part of the results.
The reply should name one outcome from true (1) for active, false (0) for inactive

Call for entry O=C(CSc1nnc(-c2ccco2)n1-c1ccc2c(c1)OCCO2)c1cccc(F)c1 :
false (0)

Call for entry O=C1CCC(=O)N1CNc1ccccc1OC(F)(F)F :
false (0)

Call for entry Cc1ncc([N+](=O)[O-])n1CCO :
false (0)

Call for entry COc1ccc2c(=O)c(-c3cc4c(cc3OC)OCO4)coc2c1 :
false (0)

Call for entry COP(=S)(OC)SCn1nnc2ccccc2c1=O :
false (0)

Call for entry C[C@]12C=CC(=O)C=C1CCC1C2CC[C@]2(C)C(=O)CCC12 (stereo partly specified) :
false (0)

Call for entry CC1=C2CCC3C(CC[C@]4(C)C(=O)CCC34)[C@@]2(C)CCC1=O (stereo partly specified) :
false (0)

Call for entry Cc1c(N(C)CS(=O)(=O)O)c(=O)n(-c2ccccc2)n1C :
false (0)

Call for entry O=C(O)C12CC3CC(CC(Br)(C3)C1)C2 :
false (0)

Call for entry O=C1c2ccccc2C(=O)c2c1ccc(O)c2O :
true (1)

Call for entry COc1ccc(Cc2nccc3cc(OC)c(OC)cc23)cc1OC :
false (0)

Call for entry COc1ccc2ccc(=O)oc2c1CC=C(C)C :
false (0)

Call for entry CC(C)=CCOc1c2occc2cc2ccc(=O)oc12 :
false (0)

Call for entry CC(=O)c1csc([N+](=O)[O-])c1 :
false (0)

Call for entry COc1ccc(/C(C)=N\NC2=NCCCN2)cc1 :
false (0)

Call for entry NCCS :
false (0)

Call for entry Cc1ccc(S(=O)(=O)/C(C#N)=N\O)cc1 :
false (0)

Call for entry CC(=O)O[C@H]1CC2CCC3C(CC[C@@]4(C)C3C[C@H]([N+]3(C)CCCCC3)[C@@H]4OC(C)=O)[C@@]2(C)C[C@@H]1[N+]1(C)CCCCC1 (stereo partly specified) :
false (0)

Call for entry O=C(CCCN1CC=C(n2c(=O)[nH]c3ccccc32)CC1)c1ccc(F)cc1 :
false (0)

Call for entry FC(F)(F)c1ccc(-n2cncn2)nc1 :
false (0)

Call for entry COc1c2c(cc3occ(-c4ccc5c(c4)OCO5)c(=O)c13)OC(C)(C)C=C2 :
false (0)

Call for entry Cc1cc(O)c2c(c1O)C(=O)c1c(O)cc(C)c(O)c1C2=O :
false (0)

Call for entry CC1(C)S[C@@H]2[C@H](NC(=O)COc3ccccc3)C(=O)N2[C@H]1C(=O)O :
false (0)

Call for entry CC1(C)C[C@@H]2C(=O)CC[C@H]3O[C@]3(C)CC[C@H]21 :
false (0)

Call for entry C=C(C)c1cc2cc(C(C)=O)c(O)cc2o1 :
false (0)

Call for entry COc1ccc2c(=O)c(CC(=O)O)coc2c1 :
false (0)

Call for entry C[C@]12CCC3c4ccc(O)cc4CCC3C1CC[C@@H]2OC(=O)CCC1CCCC1 (stereo partly specified) :
false (0)

Call for entry COc1ccc(-n2c(SCc3ccc(Br)cc3)nnc2-c2ccco2)cc1 :
false (0)

Call for entry COC(=O)c1c(OC)ccc(N=CNO)c1OC :
false (0)

Call for entry CCCCCc1ccc(S(=O)(=O)Nc2cccnc2Oc2ccc(Cl)cc2)cc1 :
false (0)

Call for entry CC1=C(C(=O)O)N2C(=O)[C@@H](NC(=O)[C@H](N)C3=CCC=CC3)C2SC1 (stereo partly specified) :
false (0)

Call for entry Cc1onc(-c2c(F)cccc2Cl)c1C(=O)N1CCN(c2ncccc2C(F)(F)F)CC1 :
false (0)

Call for entry COc1cccc(CC(=O)NN)c1 :
false (0)

Call for entry COc1cc(OC)c2c(=O)c(-c3ccc4c(c3)OCO4)coc2c1 :
false (0)

Call for entry Cn1nnnc1SCC1=C(C(=O)O)N2C(=O)C(NC(=O)C(OC=O)c3ccccc3)C2SC1 (stereo unspecified) :
false (0)

Call for entry C[C@]12CCC3C(CC[C@H]4C[C@@H](O)CC[C@]34C)C1CCC2=O (stereo partly specified) :
false (0)

Call for entry CCCCC(=O)O[C@H]1CCC2C3CCc4cc(O)ccc4C3CC[C@@]21C (stereo partly specified) :
false (0)

Call for entry S=C(NCc1ccco1)Nc1ccc(Oc2ccc(Cl)cc2)cc1 :
true (1)

Call for entry O=C(NC(c1ccccc1)C(N=Cc1ccccc1)c1ccccc1)c1ccccc1 (stereo unspecified) :
false (0)

Call for entry CC(=O)Oc1ccc2c(c1)CCC1C2CC[C@@]2(C)C1CC[C@@H]2OC(C)=O (stereo partly specified) :
false (0)

Call for entry CC(C)=CCOc1cc2oc(=O)ccc2cc1O :
false (0)

Call for entry CC(NC(=S)Nc1ccc(Oc2ccc(Cl)cc2)cc1)c1ccccc1 (stereo unspecified) :
false (0)

Call for entry O=[N+]([O-])c1ccc(C2N(Cc3ccccc3)CCC3CCCCN32)cc1 (stereo unspecified) :
false (0)

Call for entry CC(C)=CCC1=C(O)c2ccccc2C(=O)C1=O :
true (1)

Call for entry CCC(=O)O[C@H]1CCC2C3CCc4cc(O)ccc4C3CC[C@@]21C (stereo partly specified) :
false (0)

Call for entry O=C1c2ccccc2C(=O)c2c(O)c(O)cc(O)c21 :
true (1)
